Target: neutral endopeptidase E.C.3.4.24.11 (Rattus norvegicus, UniProt P07861)
Construct: neutral endopeptidase preparation from rat kidney; from tissue; host or cells: rat kidney
Sequence (P07861 1-750): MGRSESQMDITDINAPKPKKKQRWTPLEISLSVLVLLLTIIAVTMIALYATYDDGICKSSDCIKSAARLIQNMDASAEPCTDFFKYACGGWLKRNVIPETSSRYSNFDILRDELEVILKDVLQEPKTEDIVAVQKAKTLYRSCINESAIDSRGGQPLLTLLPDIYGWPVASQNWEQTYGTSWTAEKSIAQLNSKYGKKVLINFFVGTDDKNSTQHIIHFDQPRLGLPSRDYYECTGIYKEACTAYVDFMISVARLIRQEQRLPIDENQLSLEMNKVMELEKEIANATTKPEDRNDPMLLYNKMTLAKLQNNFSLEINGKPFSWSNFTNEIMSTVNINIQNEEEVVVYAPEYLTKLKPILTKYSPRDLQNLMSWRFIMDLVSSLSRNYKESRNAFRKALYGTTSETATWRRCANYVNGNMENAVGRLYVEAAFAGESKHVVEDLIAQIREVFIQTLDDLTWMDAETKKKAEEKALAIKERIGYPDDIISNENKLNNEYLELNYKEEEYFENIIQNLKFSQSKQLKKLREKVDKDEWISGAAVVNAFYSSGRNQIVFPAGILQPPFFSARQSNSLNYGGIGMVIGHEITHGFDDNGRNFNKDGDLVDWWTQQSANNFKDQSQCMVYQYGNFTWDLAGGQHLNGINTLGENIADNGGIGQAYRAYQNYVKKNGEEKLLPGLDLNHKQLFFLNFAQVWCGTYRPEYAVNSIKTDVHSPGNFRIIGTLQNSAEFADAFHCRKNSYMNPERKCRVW
Test: inhibition of the neutral endopeptidase E.C.3.4.24.11 in vitro
Assay type: biochemical
Settings: neutral endopeptidase E.C.3.4.24.11, rat kidney preparation (Example 454); read-out: IC50
Procedure: Activity against neutral endopeptidase E.C.3.4.24.11 is assessed using a procedure based on the assay described by J. T. Gafford, R. A. Skidgel, E. G. Erdos and L. B. Hersh, Biochemistry, 1983, 32, 3265-3271. […] The compounds were assessed for their ability to inhibit the neutral endopeptidase E.C.3.4.24.11 following the procedure described herein.
Please note: IC50 exactly at 6 nM is rule not met. Only values below 6 nM get rule met.

The following molecules have reported results that may help.
> print(dat)
                                   molecule                       experimental.target   label.class
1  CCCCC1CC(NC(=O)C2(C[C@@H](COCCOC)C(=O)O)CCCC2)CCC1C(=O)O (single isomer, unassigned) [Example 449 isomer B]  neutral endopeptidase E.C.3.4.24.11 (Rattus norvegicus, UniProt P07861)      rule met
2  CCCCC1CC(NC(=O)C2(C[C@@H](COCCOC)C(=O)O)CCCC2)CCC1C(=O)O (some centres unmarked) [Example 451]  neutral endopeptidase E.C.3.4.24.11 (Rattus norvegicus, UniProt P07861)  rule not met
3  CCCCC1CC(NC(=O)C2(CC(CCOC)C(=O)O)CCCC2)CCC1C(=O)O (centres unmarked)  neutral endopeptidase E.C.3.4.24.11 (Rattus norvegicus, UniProt P07861)  rule not met
4  COCCC(CC1(C(=O)N[C@H]2CC[C@@H](C(=O)O)CC2)CCCC1)C(=O)O (relative stereo)  neutral endopeptidase E.C.3.4.24.11 (Rattus norvegicus, UniProt P07861)  rule not met

Proceed to the following item.
Prompt: Please indicate whether the reported IC50 of CCCCC1CC(NC(=O)C2(C[C@@H](COCCOC)C(=O)O)CCCC2)CCC1C(=O)O (single isomer, unassigned; isomer a) [Example 449 isomer A] is strictly below 6 nM.
Completion: rule met
